Below: a set of entries, each annotated with reported inhibition.
# Tested on: PvdQ acylase [Pseudomonas aeruginosa LESB58]
# procedure-text: P. aeruginosa PvdQ acylase inhibitors, primary screen, biochemical, fluorescence, plate reader and imaging, single point (AID 488965);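 note: 0% = vehicle neutral wells and 100% = reference inhibitor wells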
# measurement-context: purified PvdQ acylase, at 10 µM, hits give high values
In all, about 340,000 compounds went through this assay and about 210 (0.062%) were called active. The list comes from a sample in which actives are over-represented; it also holds close analogues and randomly drawn compounds.

compound	measurement-target	unit-name	inhibition
COc1ccc(S(=O)(=O)NCC2CCCN(C(=O)c3occc3C)C2)cc1 (centres undefined)	PvdQ acylase [Pseudomonas aeruginosa LESB58]	%	-11.7
Cc1ccc(NC(=O)CCOc2ccccc2)cc1S(=O)(=O)Nc1ccccc1Cl	PvdQ acylase [Pseudomonas aeruginosa LESB58]	%	-5.34
O=C(Nc1ccc(Cl)cc1)c1cccc(OC(=S)N2CCOCC2)c1	PvdQ acylase [Pseudomonas aeruginosa LESB58]	%	-4.62
CC(C)C(=O)Nc1oc(-c2ccccc2)cc1C#N	PvdQ acylase [Pseudomonas aeruginosa LESB58]	%	7.27
CCC1([N+](=O)[O-])COC(c2ccc(C)cc2)OC1 (centres undefined)	PvdQ acylase [Pseudomonas aeruginosa LESB58]	%	-3.75
CCOc1ccc(-c2noc(CCC(=O)NC3CCCC3)n2)cc1OC	PvdQ acylase [Pseudomonas aeruginosa LESB58]	%	3.89
CCn1c(SCC(=O)Nc2ccc(OC)c(OC)c2)nnc1-c1c[nH]c2ccccc12	PvdQ acylase [Pseudomonas aeruginosa LESB58]	%	-5.34
CCOc1ccc(OCC)c(NC(=O)CCS(=O)(=O)c2ccc(C)cc2)c1	PvdQ acylase [Pseudomonas aeruginosa LESB58]	%	-14.3
CC(OC(=O)CCc1nc(=O)c2ccccc2n1C)C(=O)NCc1ccc2c(c1)OCO2 (centres undefined)	PvdQ acylase [Pseudomonas aeruginosa LESB58]	%	11.9

All values here come from PubChem BioAssay AID488965.
